# Protocol notes: Volume of distribution at steady state in rat at 2 mg/kg, iv
# Assay type: ADME, organism-based
# Set-up: dose 2 mg/kg, route intravenous
# Setup conditions: in vivo, read-out: Vdss
Readout kind: Vd (L/kg)
Give just the number in L/kg; leave the unit off.

Identify the reported Vd for the following entry. CNc1nc(C)nc(N2CCC(C(=O)NCc3ccc(Br)cc3OC(F)(F)F)CC2)n1 2.1

====

Readout kind: IC50 (nM)
Give just the number in nM; leave the unit off.

Fetch value of IC50 on Bifunctional epoxide hydrolase 2 (Homo sapiens, UniProt P34913) for CNc1nc(C)nc(N2CCC(C(=O)NCc3ccc(F)cc3C(F)(F)F)CC2)n1 . 50

Fetch value of IC50 on Bifunctional epoxide hydrolase 2 (Homo sapiens, UniProt P34913) for CCc1nc(NC)nc(N2CCC(C(=O)NCc3ccccc3C(F)(F)F)CC2)n1 . 80

Fetch value of IC50 on Bifunctional epoxide hydrolase 2 (Homo sapiens, UniProt P34913) for CNc1nc(-c2ccccc2)nc(N2CCC(C(=O)NCc3ccccc3C(F)(F)F)CC2)n1 . 63

Fetch value of IC50 on Bifunctional epoxide hydrolase 2 (Homo sapiens, UniProt P34913) for COCCNc1nc(C)nc(N2CCC(C(=O)NCc3ccccc3C(F)(F)F)CC2)n1 . 1

Fetch value of IC50 on Bifunctional epoxide hydrolase 2 (Homo sapiens, UniProt P34913) for CNc1nc(C)nc(N2CCC(C(=O)NCc3ccc(Br)cc3OC(F)(F)F)CC2)n1 . 3

Fetch value of IC50 on Bifunctional epoxide hydrolase 2 (Homo sapiens, UniProt P34913) for Cc1nc(N2CCOCC2)nc(N2CCC(C(=O)NCc3ccccc3C(F)(F)F)CC2)n1 . 3

Fetch value of IC50 on Bifunctional epoxide hydrolase 2 (Homo sapiens, UniProt P34913) for CNc1nc(C)nc(N2CCC(C(=O)NCc3ccccc3OC(F)(F)F)CC2)n1 . 3

Fetch value of IC50 on Bifunctional epoxide hydrolase 2 (Homo sapiens, UniProt P34913) for Cc1nc(NC(C)C)nc(N2CCC(C(=O)NCc3ccccc3C(F)(F)F)CC2)n1 . 10

====

# Protocol notes: Plasma clearance in rat at 2 mg/kg, iv
# Type: ADME, organism-based
# Set-up: dose 2 mg/kg, route intravenous
Readout kind: clearance (mL/min/kg)
Give just the number in mL/min/kg; leave the unit off.

Identify the reported clearance for the following entry. CNc1nc(C)nc(N2CCC(C(=O)NCc3ccc(Br)cc3OC(F)(F)F)CC2)n1 12

====

Readout kind: IC50 (nM)
Give just the number in nM; leave the unit off.

Fetch value of IC50 on Bifunctional epoxide hydrolase 2 (Homo sapiens, UniProt P34913) for CNc1cc(N2CCC(C(=O)NCc3ccccc3C(F)(F)F)CC2)nc(C)n1 . 5

Fetch value of IC50 on Bifunctional epoxide hydrolase 2 (Homo sapiens, UniProt P34913) for CNc1nc(C2CCCCC2)nc(N2CCC(C(=O)NCc3ccccc3C(F)(F)F)CC2)n1 . 1

Fetch value of IC50 on Bifunctional epoxide hydrolase 2 (Homo sapiens, UniProt P34913) for Cc1nc(N2CCOCC2)nc(N2CCC(C(=O)NCc3ccccc3C(F)(F)F)CC2)n1 . 1

Fetch value of IC50 on Bifunctional epoxide hydrolase 2 (Homo sapiens, UniProt P34913) for CNc1nc(C)nc(N2CCC(C(=O)NCc3ccccc3)CC2)n1 . 200

Fetch value of IC50 on Bifunctional epoxide hydrolase 2 (Homo sapiens, UniProt P34913) for CNc1nc(NC)nc(N2CCC(C(=O)NCc3ccccc3C(F)(F)F)CC2)n1 . 20

Fetch value of IC50 on Bifunctional epoxide hydrolase 2 (Homo sapiens, UniProt P34913) for CNc1nc(N(C)CCN(C)C)nc(N2CCC(C(=O)NCc3ccccc3C(F)(F)F)CC2)n1 . 80

Fetch value of IC50 on Bifunctional epoxide hydrolase 2 (Homo sapiens, UniProt P34913) for CNc1nc(C)nc(N2CCC(C(=O)NCc3ccccc3OC(F)(F)F)CC2)n1 . 1

Fetch value of IC50 on Bifunctional epoxide hydrolase 2 (Homo sapiens, UniProt P34913) for CNc1nc(C)nc(N2CCC(C(=O)NCc3ccc(Br)cc3OC(F)(F)F)CC2)n1 . 0.5

Fetch value of IC50 on Bifunctional epoxide hydrolase 2 (Homo sapiens, UniProt P34913) for COCCNc1nc(C)nc(N2CCC(C(=O)NCc3ccccc3C(F)(F)F)CC2)n1 . 1

Fetch value of IC50 on Bifunctional epoxide hydrolase 2 (Homo sapiens, UniProt P34913) for CNc1nc(C)nc(N2CCC(C(=O)NCc3ccccc3C)CC2)n1 . 200

====

# Target entity: Voltage-dependent L-type calcium channel subunit alpha-1C (Homo sapiens, UniProt Q13936)
# Sequence (Q13936 whole entry): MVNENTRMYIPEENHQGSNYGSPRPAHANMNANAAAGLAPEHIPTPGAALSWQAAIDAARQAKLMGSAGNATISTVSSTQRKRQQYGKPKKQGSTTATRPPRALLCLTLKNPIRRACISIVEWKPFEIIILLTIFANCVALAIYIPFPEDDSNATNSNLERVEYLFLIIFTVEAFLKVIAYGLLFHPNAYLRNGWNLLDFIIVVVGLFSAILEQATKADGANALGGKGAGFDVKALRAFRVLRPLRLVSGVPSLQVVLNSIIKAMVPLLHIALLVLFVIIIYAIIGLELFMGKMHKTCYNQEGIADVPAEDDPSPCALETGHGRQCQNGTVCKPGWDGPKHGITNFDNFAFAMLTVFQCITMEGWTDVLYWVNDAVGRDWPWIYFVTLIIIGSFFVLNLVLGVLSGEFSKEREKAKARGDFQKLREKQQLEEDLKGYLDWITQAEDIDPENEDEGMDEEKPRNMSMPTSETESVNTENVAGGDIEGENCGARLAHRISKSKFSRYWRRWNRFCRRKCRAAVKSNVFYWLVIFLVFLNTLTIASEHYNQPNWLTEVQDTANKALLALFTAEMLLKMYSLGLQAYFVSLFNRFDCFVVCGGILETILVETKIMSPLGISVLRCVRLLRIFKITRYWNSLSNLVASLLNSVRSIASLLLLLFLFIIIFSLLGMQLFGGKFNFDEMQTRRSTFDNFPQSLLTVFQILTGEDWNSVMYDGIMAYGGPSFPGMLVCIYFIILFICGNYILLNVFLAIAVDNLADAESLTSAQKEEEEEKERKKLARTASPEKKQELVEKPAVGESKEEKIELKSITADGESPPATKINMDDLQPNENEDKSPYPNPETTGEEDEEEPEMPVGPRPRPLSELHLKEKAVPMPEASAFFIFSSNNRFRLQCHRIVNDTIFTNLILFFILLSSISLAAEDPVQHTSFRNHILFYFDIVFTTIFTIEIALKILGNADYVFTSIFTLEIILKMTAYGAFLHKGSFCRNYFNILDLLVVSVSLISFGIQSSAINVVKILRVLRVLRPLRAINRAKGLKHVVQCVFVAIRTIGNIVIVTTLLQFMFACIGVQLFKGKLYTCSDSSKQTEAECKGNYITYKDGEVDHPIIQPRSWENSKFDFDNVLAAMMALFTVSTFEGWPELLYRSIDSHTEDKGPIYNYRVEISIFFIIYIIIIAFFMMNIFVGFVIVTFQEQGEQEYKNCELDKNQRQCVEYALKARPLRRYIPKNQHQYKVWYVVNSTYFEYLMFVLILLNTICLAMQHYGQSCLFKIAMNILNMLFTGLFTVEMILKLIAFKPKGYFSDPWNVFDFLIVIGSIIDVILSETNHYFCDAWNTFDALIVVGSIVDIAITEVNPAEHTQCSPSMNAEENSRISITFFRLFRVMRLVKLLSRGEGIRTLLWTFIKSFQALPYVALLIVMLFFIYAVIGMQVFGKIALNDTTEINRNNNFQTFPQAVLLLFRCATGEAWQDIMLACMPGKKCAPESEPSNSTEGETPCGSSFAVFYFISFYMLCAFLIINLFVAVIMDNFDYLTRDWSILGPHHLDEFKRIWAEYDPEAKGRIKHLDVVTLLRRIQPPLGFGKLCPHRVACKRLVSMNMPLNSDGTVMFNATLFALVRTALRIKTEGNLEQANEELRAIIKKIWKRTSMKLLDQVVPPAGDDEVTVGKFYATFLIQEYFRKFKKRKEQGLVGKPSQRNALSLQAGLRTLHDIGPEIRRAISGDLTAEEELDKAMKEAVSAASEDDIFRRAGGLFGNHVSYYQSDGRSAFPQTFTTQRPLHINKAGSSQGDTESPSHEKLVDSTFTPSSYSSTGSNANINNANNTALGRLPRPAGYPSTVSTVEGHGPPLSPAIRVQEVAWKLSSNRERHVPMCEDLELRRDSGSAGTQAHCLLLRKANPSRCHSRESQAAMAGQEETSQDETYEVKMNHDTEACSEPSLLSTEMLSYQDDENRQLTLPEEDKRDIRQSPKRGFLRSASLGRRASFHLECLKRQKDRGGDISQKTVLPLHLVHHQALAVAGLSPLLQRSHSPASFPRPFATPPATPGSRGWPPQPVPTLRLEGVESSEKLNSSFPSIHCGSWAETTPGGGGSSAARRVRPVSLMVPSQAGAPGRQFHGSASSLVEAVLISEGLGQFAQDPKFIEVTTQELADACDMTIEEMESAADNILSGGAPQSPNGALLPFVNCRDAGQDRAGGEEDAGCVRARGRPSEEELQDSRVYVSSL
# Protocol notes: Inhibition of CaV1.2 (unknown origin)
Readout kind: IC50

Fetch value of IC50 on Voltage-dependent L-type calcium channel subunit alpha-1C (Homo sapiens, UniProt Q13936) for CNc1nc(C)nc(N2CCC(C(=O)NCc3ccc(Br)cc3OC(F)(F)F)CC2)n1 . > 10 µM

====

Readout kind: IC50

Fetch value of IC50 on Cytochrome P450 2C8 (Homo sapiens) for CNc1nc(C)nc(N2CCC(C(=O)NCc3ccc(Br)cc3OC(F)(F)F)CC2)n1 . > 30 µM

====

# Protocol notes: Cmax in rat at 2 mg/kg, po
# Assay type: ADME, organism-based
# Parameters: dose 2 mg/kg, route oral
# Setup conditions: in vivo
Readout kind: Cmax (nM)
Give just the number in nM; leave the unit off.

Identify the reported Cmax for the following entry. CNc1nc(C)nc(N2CCC(C(=O)NCc3ccc(Br)cc3OC(F)(F)F)CC2)n1 223

====

# Protocol notes: Cmax in rat at 20 mg/kg, po
# Type: ADME, organism-based
# Parameters: dose 20 mg/kg, route oral
# Setup conditions: in vivo
Readout kind: Cmax (nM)
Give just the number in nM; leave the unit off.

Identify the reported Cmax for the following entry. CNc1nc(C)nc(N2CCC(C(=O)NCc3ccc(Br)cc3OC(F)(F)F)CC2)n1 1490

====

Exercise: for every item that follows, state its recorded IC50.

Fetch value of IC50 on UniProt P11712 for CNc1nc(N(C)CCN(C)C)nc(N2CCC(C(=O)NCc3ccccc3C(F)(F)F)CC2)n1 . 17 µM

Fetch value of IC50 on UniProt P11712 for CNc1nc(C2CCCCC2)nc(N2CCC(C(=O)NCc3ccccc3C(F)(F)F)CC2)n1 . 0.063 µM

Fetch value of IC50 on UniProt P11712 for CNc1nc(C)nc(N2CCC(C(=O)NCc3ccccc3C(F)(F)F)CC2)n1 . 25 µM

Fetch value of IC50 on UniProt P11712 for CNc1cc(N2CCC(C(=O)NCc3ccccc3C(F)(F)F)CC2)cc(C)n1 . > 25 µM

Fetch value of IC50 on UniProt P11712 for CNc1nc(C)nc(N2CCC(C(=O)NCc3ccccc3C#N)CC2)n1 . > 25 µM

Fetch value of IC50 on UniProt P11712 for CNc1nc(C)nc(N2CCC(C(=O)NCc3ccc(F)cc3C(F)(F)F)CC2)n1 . > 25 µM

Fetch value of IC50 on UniProt P11712 for CNc1nc(C)nc(N2CCC(C(=O)NCc3ccccc3C)CC2)n1 . > 25 µM

Fetch value of IC50 on UniProt P11712 for CNc1nc(C)cc(N2CCC(C(=O)NCc3ccccc3C(F)(F)F)CC2)n1 . > 25 µM

====

Here we list molecules with their recorded IC50 when tested on Bifunctional epoxide hydrolase 2 (Homo sapiens, UniProt P34913).
Sequence (P34913 whole entry): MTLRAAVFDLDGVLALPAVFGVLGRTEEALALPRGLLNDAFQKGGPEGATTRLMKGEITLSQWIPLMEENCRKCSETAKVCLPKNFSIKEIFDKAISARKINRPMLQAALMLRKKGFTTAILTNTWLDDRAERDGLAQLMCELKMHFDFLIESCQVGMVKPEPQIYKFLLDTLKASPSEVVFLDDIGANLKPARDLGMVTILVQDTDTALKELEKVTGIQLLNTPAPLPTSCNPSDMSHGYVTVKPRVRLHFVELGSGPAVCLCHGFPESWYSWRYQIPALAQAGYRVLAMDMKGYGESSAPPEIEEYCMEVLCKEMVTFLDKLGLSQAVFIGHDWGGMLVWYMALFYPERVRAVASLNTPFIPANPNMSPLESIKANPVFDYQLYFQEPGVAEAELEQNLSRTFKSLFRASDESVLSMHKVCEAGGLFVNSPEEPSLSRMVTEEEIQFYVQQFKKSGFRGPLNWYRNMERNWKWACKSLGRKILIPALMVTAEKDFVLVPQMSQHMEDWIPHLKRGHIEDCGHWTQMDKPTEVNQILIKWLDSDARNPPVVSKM
Give just the number in nM; leave the unit off.

Identify the reported IC50 for the following entry. CNc1cc(N2CCC(C(=O)NCc3ccccc3C(F)(F)F)CC2)nc(C)n1 80

Identify the reported IC50 for the following entry. CNc1nc(NC)nc(N2CCC(C(=O)NCc3ccccc3C(F)(F)F)CC2)n1 100

Identify the reported IC50 for the following entry. CNc1nc(C)nc(N2CCC(C(=O)NCc3ccccc3C(F)(F)F)CC2)n1 100

Identify the reported IC50 for the following entry. CNc1nc(C)nc(N2CCC(C(=O)NCc3ccc(OC)cc3C(F)(F)F)CC2)n1 2

Identify the reported IC50 for the following entry. CNc1cc(C)cc(N2CCC(C(=O)NCc3ccccc3C(F)(F)F)CC2)n1 100

====

# Target entity: Bifunctional epoxide hydrolase 2 (Rattus norvegicus)
# Sequence (P80299 whole entry): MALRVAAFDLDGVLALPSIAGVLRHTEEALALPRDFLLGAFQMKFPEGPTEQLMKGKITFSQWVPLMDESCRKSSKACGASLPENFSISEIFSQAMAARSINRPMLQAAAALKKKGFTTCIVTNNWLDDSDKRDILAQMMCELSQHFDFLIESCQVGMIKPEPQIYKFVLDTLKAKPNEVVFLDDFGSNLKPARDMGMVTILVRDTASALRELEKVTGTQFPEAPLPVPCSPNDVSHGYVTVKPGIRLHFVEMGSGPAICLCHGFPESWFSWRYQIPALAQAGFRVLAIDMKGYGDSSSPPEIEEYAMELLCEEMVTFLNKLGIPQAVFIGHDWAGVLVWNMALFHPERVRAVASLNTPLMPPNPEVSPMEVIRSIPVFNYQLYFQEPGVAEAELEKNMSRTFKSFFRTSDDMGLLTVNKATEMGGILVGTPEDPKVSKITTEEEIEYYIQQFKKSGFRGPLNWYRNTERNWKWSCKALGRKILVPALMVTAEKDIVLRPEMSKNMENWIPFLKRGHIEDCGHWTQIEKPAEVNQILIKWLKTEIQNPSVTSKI
Readout kind: IC50 (nM)
Give just the number in nM; leave the unit off.

Identify the reported IC50 for the following entry. CNc1nc(C)nc(N2CCC(C(=O)NCc3ccc(Br)cc3OC(F)(F)F)CC2)n1 2

====

# Protocol notes: Fraction unbound in rat plasma
# Format: ADME, cell-free
Exercise: for every item that follows, state its recorded fraction unbound.

Identify the reported fraction unbound for the following entry. CNc1nc(C)nc(N2CCC(C(=O)NCc3ccc(Br)cc3OC(F)(F)F)CC2)n1 0.015

Identify the reported fraction unbound for the following entry. CNc1nc(-c2ccccc2)nc(N2CCC(C(=O)NCc3ccccc3C(F)(F)F)CC2)n1 0.015
